Method Summary: 28-day once weekly oral repeated-dose DRF study in cynomolgus monkeys (mesylate salt)
Assay type: in vivo
Condition Notes: female, cynomolgus monkey, blood, po, 90 mg/kg, F, Day 1
Measured Parameter: half-life (h)
One number for each entry, in h.

Exam item: Supply measured half-life of CC(C)C[C@@H]1NCCN([C@@H](CC(C)C)C(=O)N2CCC3(C[C@@H]2C)OCC(CN2CCCC2)CO3)C1=O (stereo partly shown) in your reply.
Marked response: 4.3

###

Method Summary: 5-day daily oral repeated-dose pilot study in Beagle dogs (mesylate salt)
Assay type: in vivo
Condition Notes: both sexes, Beagle, dog, plasma, po, 1.5 mg/kg, Day 5
Measured Parameter: Cmax (ng/mL)
One number for each entry, in ng/mL.

Exam item: Supply measured Cmax of CC(C)C[C@@H]1NCCN([C@@H](CC(C)C)C(=O)N2CCC3(C[C@@H]2C)OCC(CN2CCCC2)CO3)C1=O (stereo partly shown) [Compound 1] in your reply.
Marked response: 44.6

###

Method Summary: Plasma protein binding, equilibrium dialysis
Format: in vitro ADME
Condition Notes: rat plasma, 37° C, buffer pH 7.4; read-out: Fraction unbound (Fu), Mean
Measured Parameter: fraction unbound
One number for each entry.

Exam item: Supply measured fraction unbound of CC(C)C[C@@H]1NCCN([C@@H](CC(C)C)C(=O)N2CCC3(C[C@@H]2C)OCC(CN2CCCC2)CO3)C1=O (stereo partly shown) in your reply.
Marked response: 0.528

###

Method Summary: 28-day once weekly oral repeated-dose DRF study in cynomolgus monkeys (mesylate salt)
Format: in vivo
Condition Notes: male, cynomolgus monkey, whole blood, po, 30 mg/kg, M, Day 22; read-out: AUC0-Tlast
Description: The objective of the study was to determine the TK profile of Compound 1 following 4 weekly oral administrations to cynomolgus monkeys and to assess reversibility of any changes following a 13-day recovery period. Male and female cynomolgus monkeys (n=1/sex/group) were orally administered Compound 1 (mesylate salt) at dose levels of 30, 45, 60, or 90 mg/kg/administration for 4 consecutive doses on study days 1, 8, 15, and 22. The vehicle was 0.5% (w/v) methyl cellulose 400 in sterile water. […]
Measured Parameter: AUC(0-t) (ng·h/mL)
Answers are plain numbers, in ng·h/mL.

Exam item: Supply measured AUC(0-t) of CC(C)C[C@@H]1NCCN([C@@H](CC(C)C)C(=O)N2CCC3(C[C@@H]2C)OCC(CN2CCCC2)CO3)C1=O (stereo partly shown) [Compound 1] in your reply.
Marked response: 576

###

Method Summary: 14-day daily oral repeated-dose DRF study in cynomolgus monkeys (mesylate salt)
Format: in vivo
Condition Notes: cynomolgus monkey, plasma, po, 0.5 mg/kg, 0.5 mg/kg (Gr. 1), Day 7
Measured Parameter: Cmax (ng/mL)
One number for each entry, in ng/mL.

Exam item: Supply measured Cmax of CC(C)C[C@@H]1NCCN([C@@H](CC(C)C)C(=O)N2CCC3(C[C@@H]2C)OCC(CN2CCCC2)CO3)C1=O (stereo partly shown) in your reply.
Marked response: 0.18

###

Method Summary: 28-day once weekly oral repeated-dose DRF study in cynomolgus monkeys (mesylate salt)
Assay type: in vivo
Condition Notes: male, cynomolgus monkey, blood, po, 90 mg/kg, M, Day 1
Measured Parameter: Tmax (min)
Give bare numbers, in min.

Exam item: Supply measured Tmax of CC(C)C[C@@H]1NCCN([C@@H](CC(C)C)C(=O)N2CCC3(C[C@@H]2C)OCC(CN2CCCC2)CO3)C1=O (stereo partly shown) in your reply.
Marked response: 37.8
